target: Recombinant MAPKAPK2 (Homo sapiens, UniProt P49137)
Sequence (P49137 whole entry, species assumed): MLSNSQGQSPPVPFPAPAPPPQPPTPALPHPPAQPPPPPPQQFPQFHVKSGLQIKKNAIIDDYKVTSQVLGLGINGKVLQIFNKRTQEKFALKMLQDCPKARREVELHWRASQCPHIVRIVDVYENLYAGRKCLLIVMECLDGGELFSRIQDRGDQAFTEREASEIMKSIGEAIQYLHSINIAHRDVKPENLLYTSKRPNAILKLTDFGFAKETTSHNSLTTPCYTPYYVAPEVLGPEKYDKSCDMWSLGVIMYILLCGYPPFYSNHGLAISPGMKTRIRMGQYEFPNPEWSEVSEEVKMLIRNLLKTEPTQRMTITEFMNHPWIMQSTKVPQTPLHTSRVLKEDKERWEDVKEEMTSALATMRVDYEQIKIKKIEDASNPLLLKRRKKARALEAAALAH
experiment description: Determination of MK-2 IC50 (HSP-peptide phosphorylation, anion exchange resin capture assay)
Assay type: biochemical
condition context: MK-2 Avg. IC50, Table 2, tricyclic aminocyanopyridine MK-2 inhibitors
Reported log10 IC50 values are given for each entry in this list.
measurement label: log10 IC50 (log10 of the value in µM)

molecule: N#Cc1c(N)nc2c(c1N)Cc1cccc(F)c1S2 [Example 57]
log10 IC50: 1.63

molecule: N#Cc1c(N)nc2c(c1N)Cc1cc(O)ccc1S2 [Example 51]
log10 IC50: 1.24

molecule: N#Cc1c(N)nc2c(c1N)Cc1ccc(O)c(O)c1O2 [Example 21]
log10 IC50: -0.07

molecule: N#Cc1c(N)nc2c(c1N)Cc1ccc(OCCN)cc1O2 [Example 19]
log10 IC50: -0.09

molecule: N#Cc1c(N)nc2c(c1N)Cc1ccc(OCCN3CCCC3)cc1O2 [Example 25]
log10 IC50: 0.23

====

target: Recombinant MAPKAPK2 (Homo sapiens, UniProt P49137)
experiment description: Determination of MK-2 IC50 (HSP-peptide phosphorylation, anion exchange resin capture assay)
Assay type: biochemical
condition context: MK-2 Avg. IC50, Table I, aminocyanopyridine MK-2 inhibitors
pIC50: −log10 of the molar value.
If the reported pIC50 equals or exceeds 4, assign 1. If not, assign 0.

molecule: N#Cc1c(-c2cnc[nH]2)cc(-c2cccc(O)c2)nc1N
target: Recombinant MAPKAPK2 (Homo sapiens, UniProt P49137)
class assignment: 1
--
molecule: N#Cc1c(-c2ccccc2F)cc(-c2ccc(C(=O)O)cc2)nc1N
target: Recombinant MAPKAPK2 (Homo sapiens, UniProt P49137)
class assignment: 1
--
molecule: N#Cc1c(N)nc2c(c1-c1ccco1)CCc1cc(C(=O)O)ccc1-2
target: Recombinant MAPKAPK2 (Homo sapiens, UniProt P49137)
class assignment: 1
--
molecule: N#Cc1c(-c2cnc[nH]2)cc(-c2ccc(Cl)cc2)nc1N
target: Recombinant MAPKAPK2 (Homo sapiens, UniProt P49137)
class assignment: 1
--
molecule: Cn1cnc(-c2cc(-c3ccco3)nc(N)c2C#N)c1
target: Recombinant MAPKAPK2 (Homo sapiens, UniProt P49137)
class assignment: 1
--
molecule: N#Cc1c(N)nc2c(c1-c1ccc(C(=O)O)cc1)CCc1[nH]ncc1-2
target: Recombinant MAPKAPK2 (Homo sapiens, UniProt P49137)
class assignment: 0
--
molecule: N#Cc1c(N)nc2c(c1-c1ccco1)CCc1cc(N)ccc1-2
target: Recombinant MAPKAPK2 (Homo sapiens, UniProt P49137)
class assignment: 1
--
molecule: Cn1cccc1-c1cc(-c2ccco2)c(C#N)c(N)n1
target: Recombinant MAPKAPK2 (Homo sapiens, UniProt P49137)
class assignment: 1
--
molecule: COc1ccc(OCC2Cc3c(nc(N)c(C#N)c3N)O2)cc1 (stereo not drawn)
target: Recombinant MAPKAPK2 (Homo sapiens, UniProt P49137)
class assignment: 1
--
molecule: N#Cc1c(-c2cccc(F)c2)cc(-c2ccco2)nc1N
target: Recombinant MAPKAPK2 (Homo sapiens, UniProt P49137)
class assignment: 0
--
molecule: N#Cc1c(-c2ccccc2F)cc(-c2ccco2)nc1N1CCCCC1
target: Recombinant MAPKAPK2 (Homo sapiens, UniProt P49137)
class assignment: 0
--
molecule: Cc1ccc(-c2cc(-c3ccccc3Cl)c(C#N)c(N)n2)o1
target: Recombinant MAPKAPK2 (Homo sapiens, UniProt P49137)
class assignment: 0
--
molecule: N#Cc1c(N)nc2c(c1N)CC(COC(F)(F)C(F)F)O2 (stereo not drawn)
target: Recombinant MAPKAPK2 (Homo sapiens, UniProt P49137)
class assignment: 0
--
molecule: CCOC(=O)c1ccc(-c2cc(-c3cnc[nH]3)c(C#N)c(N)n2)cc1
target: Recombinant MAPKAPK2 (Homo sapiens, UniProt P49137)
class assignment: 1
--
molecule: N#Cc1c(N)nc2c(c1-c1ccco1)CCc1cnccc1-2
target: Recombinant MAPKAPK2 (Homo sapiens, UniProt P49137)
class assignment: 1
--
molecule: N#Cc1c(-c2ccccc2)cc(-c2cccs2)nc1N
target: Recombinant MAPKAPK2 (Homo sapiens, UniProt P49137)
class assignment: 1
--
molecule: N#Cc1c(-c2c[nH]c(C(=O)O)c2)cc(-c2ccco2)nc1N
target: Recombinant MAPKAPK2 (Homo sapiens, UniProt P49137)
class assignment: 1
--
molecule: CC(C)(C)NS(=O)(=O)c1ccc(-c2cc(-c3ccco3)c(C#N)c(N)n2)cc1
target: Recombinant MAPKAPK2 (Homo sapiens, UniProt P49137)
class assignment: 1
--
molecule: N#Cc1c(-c2ccco2)cc(-c2ccc(S(N)(=O)=O)cc2)nc1N
target: Recombinant MAPKAPK2 (Homo sapiens, UniProt P49137)
class assignment: 1
--
molecule: CC1Cc2n[nH]cc2-c2nc(N)c(C#N)c(-c3ccccc3F)c21 (stereo not drawn)
target: Recombinant MAPKAPK2 (Homo sapiens, UniProt P49137)
class assignment: 0
--
molecule: N#Cc1c(N)nc2c(c1N)CC(C(F)(F)F)O2 (stereo not drawn)
target: Recombinant MAPKAPK2 (Homo sapiens, UniProt P49137)
class assignment: 1
--
molecule: COC(=O)c1ccc(-c2cc(-c3ccco3)c(C#N)c(N)n2)cc1
target: Recombinant MAPKAPK2 (Homo sapiens, UniProt P49137)
class assignment: 0
--
molecule: N#Cc1c(-c2ccc(C(=O)O)cc2)cc(-c2ccco2)nc1N
target: Recombinant MAPKAPK2 (Homo sapiens, UniProt P49137)
class assignment: 1
--
molecule: COc1ccc(-c2cc(-c3cnc[nH]3)c(C#N)c(N)n2)cc1
target: Recombinant MAPKAPK2 (Homo sapiens, UniProt P49137)
class assignment: 1
--
molecule: N#Cc1c(N)nc2c(c1-c1c(F)cccc1F)CCc1[nH]ncc1-2
target: Recombinant MAPKAPK2 (Homo sapiens, UniProt P49137)
class assignment: 1
--
molecule: Cn1ncc2c1CCc1c-2nc(N)c(C#N)c1-c1ccco1
target: Recombinant MAPKAPK2 (Homo sapiens, UniProt P49137)
class assignment: 1
--
molecule: N#Cc1c(N)nc2c(c1-c1ccccc1F)CCc1ccccc1-2
target: Recombinant MAPKAPK2 (Homo sapiens, UniProt P49137)
class assignment: 1
--
molecule: COc1ccc(-c2c(C#N)c(N)nc3c2CCc2[nH]ncc2-3)cc1
target: Recombinant MAPKAPK2 (Homo sapiens, UniProt P49137)
class assignment: 1
--
molecule: N#Cc1c(N)nc2c(c1-c1cccc(F)c1F)CCc1[nH]ncc1-2
target: Recombinant MAPKAPK2 (Homo sapiens, UniProt P49137)
class assignment: 1
--
molecule: N#Cc1c(-c2cnc[nH]2)cc(-c2ccccc2)nc1N [Example 45]
target: Recombinant MAPKAPK2 (Homo sapiens, UniProt P49137)
class assignment: 1
--
molecule: CS(=O)(=O)c1ccc(-c2cc(-c3cnc[nH]3)c(C#N)c(N)n2)cc1
target: Recombinant MAPKAPK2 (Homo sapiens, UniProt P49137)
class assignment: 1

====

target: Recombinant MAPKAPK2 (Homo sapiens, UniProt P49137)
experiment description: Determination of MK-2 IC50 (HSP-peptide phosphorylation, anion exchange resin capture assay)
Type: biochemical
condition context: MK-2 Avg. IC50, Table I, aminocyanopyridine MK-2 inhibitors
Field 'label' (enum: Yes / No). Set to Yes when IC50 is strictly under 40 µM; else No.

molecular string: N#Cc1ccc(-c2c(C#N)c(N)nc3c2CCc2[nH]ncc2-3)cc1
class assignment: No
//
molecular string: N#Cc1c(N)nc2c(c1-c1cccc3c1OCO3)CCc1[nH]ncc1-2
class assignment: No
//
molecular string: N#Cc1c(-c2c[nH]c(C(N)=O)c2)cc(-c2ccco2)nc1N
class assignment: Yes
//
molecular string: CSc1cc(-c2ccco2)nc(N)c1C#N
class assignment: Yes
//
molecular string: N#Cc1c(-c2ccco2)cc(-c2ccc(C(=O)O)cc2)nc1N
class assignment: Yes
//
molecular string: N#Cc1c(-c2ccco2)cc(-c2cc[nH]n2)nc1N
class assignment: Yes
//
molecular string: N#Cc1c(-c2ccco2)cc(-c2ccc(-n3ccnc3)cc2)nc1N
class assignment: No
//
molecular string: CC(=O)Nc1ccc(-c2c(C#N)c(N)nc3c2CCc2[nH]ncc2-3)cc1
class assignment: Yes
//
molecular string: N#Cc1c(-c2ccco2)cc(-c2ccc(Cl)cc2)nc1N
class assignment: No

====

target: Recombinant MAPKAPK2 (Homo sapiens, UniProt P49137)
experiment description: Determination of MK-2 IC50 (HSP-peptide phosphorylation, anion exchange resin capture assay)
Assay type: biochemical
condition context: MK-2 Avg. IC50, Table I, aminocyanopyridine MK-2 inhibitors
Method: The phosphorylation of HSP-peptide ([…]) by MAPKAPK2 was measured using an anion exchange resin capture assay method. […] A 50 μl aliquot of head volume was removed from the quenched reaction mixture and added to a 96-well plate, 150 μl of Microscint-40 (Packard) was added and the amount of phosphorylated-peptide was determined. […] Compounds are evaluated as potential inhibitors of the MK2 kinase by measuring their effects on MK2 phosphorylation of the peptide substrate. […]
Reported IC50 values are given for each entry in this list.
measurement label: IC50 (µM)

compound: N#Cc1c(N)nc2c(c1N)Cc1cccc(OCC(=O)O)c1O2
value unit: µM
obs value: 72.2

compound: COCC1Cc2c(nc(N)c(C#N)c2N)O1 (stereo not shown)
value unit: µM
obs value: 119

compound: COc1cc(N)c(C#N)c(N)n1
value unit: µM
obs value: 50.9

compound: CCCc1nc(N)c(C#N)c(N)c1C#N
value unit: µM
obs value: 99.8

compound: N#Cc1c(-c2ccccc2F)cc(-c2ccco2)nc1NCC(=O)O
value unit: µM
obs value: 114

compound: CCC1Cc2c(nc(N)c(C#N)c2N)O1 (stereo not shown)
value unit: µM
obs value: 37.9

compound: N#Cc1c(N)nc2c(c1N)CC(CCl)O2 (stereo not shown)
value unit: µM
obs value: 13.4

compound: N#Cc1c(-c2ccc(Br)cc2)cc(-c2ccco2)nc1N
value unit: µM
obs value: 130

compound: CC(C)(C)NS(=O)(=O)c1ccc(-c2cc(-c3ccccc3F)c(C#N)c(N)n2)cc1
value unit: µM
obs value: 71.5

compound: N#Cc1c(N)nc2c(c1-c1ccco1)CCc1c(O)cccc1-2
value unit: µM
obs value: 82.6
